Values from BindingDB's records for doi:10.1021/jm011020u

# ASSAYED_SYSTEM: Glycogen synthase kinase-3 beta [7-25] (Oryctolagus cuniculus, UniProt G1T8E2)
# Construct: 7-25
# ASSAY_NAME: GSK-3 Inhibition Assay
# RUN_PARAMETERS: 37 °C
pIC50: −log10 of the molar value.
The label depends only on pIC50: 1 if it is at least 5, 0 if it is smaller.

# ITEM_SMILES, LABEL_VALUE
records = [
    ("Cn1sc(=O)n(-c2ccc(F)cc2)c1=O", 1),
]

Tell me whether pIC50 is at least 5 here: CCOC(=O)/N=c1\sn(C(=O)OCC)c(=S)n1-c1ccccc1
0

For this compound, is measured pIC50 5 or higher? CCNC(=O)/N=c1\sn(CC)c(=O)n1-c1ccccc1
0

Is pIC50 at least 5? Consider Cn1sc(=O)n(-c2cccc3ccccc23)c1=O
1

Hi, just wondering whether Cn1sc(=O)n(-c2ccc(C(F)(F)F)cc2)c1=O shows pIC50 of 5 or higher.
1

Record CCn1sc(=O)n(Cc2ccccc2)c1=S ; criterion: pIC50 no lower than 5. Met?
1

---

Reported pIC50 is given for each of the following compounds.
# ASSAYED_SYSTEM: Glycogen synthase kinase-3 beta [7-25] (Oryctolagus cuniculus, UniProt G1T8E2)
# Construct: 7-25
# ASSAY_NAME: GSK-3 Inhibition Assay
# RUN_PARAMETERS: 37 °C
Scale: negative log10 of molar concentration, which is what pIC50 denotes.

For orientation, consider the following solved cases.
# ITEM_SMILES, ASSAYED_SYSTEM, NUMERIC_RESULT
data = [
    ("CCn1sc(=O)n(CC)c1=S", "Glycogen synthase kinase-3 beta [7-25] (Oryctolagus cuniculus, UniProt G1T8E2)", 4.70),
    ("O=c1sn(Cc2ccccc2)c(=S)n1Cc1ccccc1", "Glycogen synthase kinase-3 beta [7-25] (Oryctolagus cuniculus, UniProt G1T8E2)", 5.00),
    ("Cn1sc(=O)n(-c2ccc(Cl)cc2)c1=O", "Glycogen synthase kinase-3 beta [7-25] (Oryctolagus cuniculus, UniProt G1T8E2)", 5.40),
]

# pIC50 (compound: O=c1sn(-c2ccccc2)c(=S)n1-c1ccccc1 ) is 5.10

The measured pIC50 associated with CCn1c(=S)n(C)s/c1=N\c1cccnc1 reads 5.00

Entry Cc1ccc(-n2c(=O)sn(C)c2=O)cc1 , pIC50 reported as 5.30

Just so you know, measured pIC50 for CCn1sc(=N)n(-c2ccccc2)c1=O came out at 4.19
